Tested on: Danio rerio Tg(wt1b:EGFP) embryo, pronephros
PROTOCOL: fraction of imaged embryos annotated as normal kidney; higher = less nephrotoxic; extreme values may be limits of the assay
STUDY_CONDITIONS: 25 µM; exposure: 24-48 hpf
Where a name gives a salt, the structure may show the parent alone.
EXPERIMENTAL_ENDPOINT: fraction of imaged embryos annotated as normal kidney
Enter a number only.

COc1ccc(OC)c(C(O)C(C)N)c1 (centres undefined) [Methoxamine hydrochloride] : 0.75
CC(C)C[C@H](CN)CC(=O)O [Pregabalin] : 0.917
CNC(=O)Oc1ccc2c(c1)[C@]1(C)CCN(C)[C@@H]1N2C [Eserine hemisulfate salt] : 1
Cc1cccc(C)c1NC1=NCCCS1 [Xylazine] : 0.833
CO[C@]12C[C@@H](COC(=O)c3cncc(Br)c3)CN(C)[C@@H]1Cc1cn(C)c3cccc2c13 [Nicergoline] : 1
CN(C)C(=O)Oc1cccc([N+](C)(C)C)c1 [Neostigmine bromide] : 0.667
CN(C)C(=O)Oc1ccc[n+](C)c1 [Pyridostigmine iodide] : 0.917
C[N+](C)(C)CCCCCCCCCC[N+](C)(C)C [Decamethonium bromide] : 0.727

Input line: May I ask what fraction of imaged embryos annotated as normal kidney has been recorded for CC(=O)O[C@H]1CC[C@@]2(C)C(=CC[C@@H]3[C@@H]2CC[C@]2(C)C(=O)CC[C@@H]32)C1 [Dehydroisoandosterone 3-acetate] ?
Output line: 0.917

Origin of the recorded values: the supplement of paper PMC7366291
